Taken from paper PMC7170309.

# System: OVCAR-4
# TEST_DETAILS: NCI-60 SRB assay, OVCAR-4 (Ovarian Cancer)
# Format: cell-based, human
# PROTOCOL_CONDITIONS: 10 µM, 48 h, growth vs untreated control

SMILES_RECORD | G%
C[C@@H]1NC(c2ccc(N=[N+]=[N-])cc2)=Nc2nc3ccccn3c2C1=O | 88,58%
C[C@@H]1NC(c2csc3ccccc23)=Nc2nc3ccccn3c2C1=O | 74,08%
[N-]=[N+]=NCCCC[C@@H]1NC(c2ccc(Br)cc2)=Nc2nc3ccccn3c2C1=O | 94,68%
C[C@@H]1NC(c2ccc(Br)cc2)=Nc2nc3ccccn3c2C1=O | 77,46%
